Target: T1, recombinant human TIGIT (human, UniProt Q495A1 22-141, limits assumed)
T1 construct: recombinant human TIGIT used in Carterra SPR; also called hTIGIT
T1 sequence (looked up): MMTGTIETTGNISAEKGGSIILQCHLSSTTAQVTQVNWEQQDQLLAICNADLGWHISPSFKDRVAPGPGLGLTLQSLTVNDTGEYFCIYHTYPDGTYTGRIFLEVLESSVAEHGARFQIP
Assay: SPR Carterra, average
PROPERTY NAME: koff

INPUT: Please look up its koff: TIGIT-SC207 (Fc fusion, VHH-Fc fusion in assay) VHH: EVQLVESGGGLVQPGGSLRLSCAASGFAFSSYVMGWFRQAPGKEREFVAAIWRSGTLKAYADSVKGRFTISADNSKNTEYLQMNSLKPEDTAVYYCARDDYGDTRRYFQHWGQGTLVTVSS
OUTPUT: 0.00371 s⁻¹

Further cases:
INPUT: Please look up its koff: TIGIT-SC63 (Fc fusion, VHH-Fc fusion in assay) VHH: EVQLVESGGGLVQPGGSLRLSCAASGRAIGSYGMGWFRQAPGKEREFVATISVSGVYTYYADSVKGRFTISADNSKNTAYLQMNSLKPEDTAVYYCARATPGGVVPWGQGTLVTVSS
OUTPUT: ≤ 1e-05 s⁻¹
